// provenance: the Immune Epitope Database (IEDB)

Test target: HLA-B*51:01
Assay procedure: IEDB peptide-MHC binding, purified MHC/competitive/radioactivity; filed as Kd, often an IC50 or EC50 that approximates it; bounds were set here for any values at or beyond the usual limits of such assays
Details: source organism: Vaccinia virus WR
pKd: −log10 of the molar value.
Measurement label: pKd

> print(dat)
    biopolymer.sequence  observed.value
 1           KQYIVATLMK          ≤ 4.46
 2           APGSPTNLEF          ≤ 4.16
 3            EPISILDRI            7.43
 4            FPSTQRDYY          ≤ 4.11
 5           TPNYMKLLVY          ≤ 4.54
 6           IPYLRNYMVI          ≤ 4.60
 7            FPGLYGASI            6.86
 8            ISIIVLFQR          ≤ 4.68
 9           WPNNCGWKIY          ≤ 4.16
10           YPTNDIPSLF            5.37
11           IPKFKVTGSY          ≤ 4.16

* * *

Test target: HLA-A*68:02
Assay procedure: IEDB peptide-MHC binding, purified MHC/competitive/fluorescence; filed as Kd, often an IC50 or EC50 that approximates it; bounds were set here for any values at or beyond the usual limits of such assays
Details: source organism: Coxiella burnetii Dugway 5J108-111
Measurement label: Kd

> print(dat)
   biopolymer.sequence  observed.value
1            IIGLLKIFR         1320 nM

* * *

Test target: HLA-B*07:02
Assay procedure: IEDB peptide-MHC binding, purified MHC/direct/fluorescence; filed as Kd, often an IC50 or EC50 that approximates it; bounds were set here for any values at or beyond the usual limits of such assays
Details: source organism: Rickettsia australis
Measurement label: Kd

> print(dat)
   biopolymer.sequence  test.target  measurement.label  observed.value
1            ATYGTAVNK  HLA-B*07:02                 Kd         ≥ 20 µM

* * *

Test target: HLA-A*11:01
Assay procedure: IEDB peptide-MHC binding, purified MHC/competitive/radioactivity; filed as Kd, often an IC50 or EC50 that approximates it; bounds were set here for any values at or beyond the usual limits of such assays
Details: source organism: Vaccinia virus Copenhagen
pKd: −log10 of the molar value.
Measurement label: pKd

> print(dat)
   biopolymer.sequence  measurement.label  observed.value
1            LLNVTYNIK                pKd            5.32
2           KSTSPTRTWK                pKd            7.66

* * *

Test target: HLA-B*57:01
Assay procedure: IEDB peptide-MHC binding, purified MHC/competitive/fluorescence; filed as Kd, often an IC50 or EC50 that approximates it; bounds were set here for any values at or beyond the usual limits of such assays
Details: source organism: Reston ebolavirus - Reston (1989)
Measurement label: Kd

> print(dat)
   biopolymer.sequence  measurement.label  observed.value
1            GRYNLVPPK                 Kd         ≥ 20 µM
